A short record of Ki observed with UniProt:P19327 follows.
Sequence (P19327 whole entry): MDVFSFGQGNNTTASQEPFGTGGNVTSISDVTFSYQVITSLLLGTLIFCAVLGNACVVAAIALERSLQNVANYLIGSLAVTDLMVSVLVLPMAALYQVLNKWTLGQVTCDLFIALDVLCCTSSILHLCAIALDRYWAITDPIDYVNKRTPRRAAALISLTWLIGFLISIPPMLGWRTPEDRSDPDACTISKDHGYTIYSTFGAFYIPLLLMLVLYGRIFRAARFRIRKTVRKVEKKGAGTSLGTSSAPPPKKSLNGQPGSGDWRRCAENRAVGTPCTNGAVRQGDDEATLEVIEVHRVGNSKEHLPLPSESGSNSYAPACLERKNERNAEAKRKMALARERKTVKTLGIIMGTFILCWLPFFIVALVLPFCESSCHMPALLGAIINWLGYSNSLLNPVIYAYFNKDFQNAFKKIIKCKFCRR
All answers are understood in µM, so give the number only.

Solved cases below.
INSERT INTO assay_data (molecule, reported_measurement) VALUES
  ('c1cnc2c(c1)ccn2CCN1CCCN2CCCCC2C1 (stereo not given)', 24.5),
  ('Brc1ccc2ccn(CCN3CCCN4CCCCC4C3)c2n1 (stereo not given)', 14.9),
  ('Clc1ccc2ccn(CCN3CCCN4CCCCC4C3)c2n1 (stereo not given)', 15);

Now look at this one.
Identify the measured Ki of Clc1nccc2ccn(CCN3CCCN4CCCCC4C3)c12 (stereo not given) for UniProt:P19327.
16

====

A short record of pKi observed with 5-hydroxytryptamine receptor 7 (Homo sapiens, UniProt P34969) follows.
Sequence (P34969 whole entry): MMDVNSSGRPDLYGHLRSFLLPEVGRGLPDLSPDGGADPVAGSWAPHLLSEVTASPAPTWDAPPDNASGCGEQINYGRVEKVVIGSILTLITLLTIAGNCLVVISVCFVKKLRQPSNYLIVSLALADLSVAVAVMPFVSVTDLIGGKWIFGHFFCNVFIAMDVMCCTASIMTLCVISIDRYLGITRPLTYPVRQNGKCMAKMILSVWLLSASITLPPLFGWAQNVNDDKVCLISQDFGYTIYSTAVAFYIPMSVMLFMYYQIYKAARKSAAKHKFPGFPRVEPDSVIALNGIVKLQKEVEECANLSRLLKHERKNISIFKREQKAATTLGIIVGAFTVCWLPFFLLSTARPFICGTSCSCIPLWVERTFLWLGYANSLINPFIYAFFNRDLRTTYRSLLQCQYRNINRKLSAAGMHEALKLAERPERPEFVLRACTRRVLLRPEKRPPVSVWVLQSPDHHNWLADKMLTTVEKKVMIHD
pKi is a log-scale quantity: -log10 of the concentration expressed in molar.

Solved cases below.
INSERT INTO results (compound, reported_measurement) VALUES
  ('Brc1ccc2ccn(CCN3CCCN4CCCCC4C3)c2n1 (stereo not given)', 6.31),
  ('c1cnc2c(c1)ccn2CCN1CCCN2CCCCC2C1 (stereo not given)', 4.85),
  ('Clc1nccc2ccn(CCN3CCCN4CCCCC4C3)c12 (stereo not given)', 5.27);

Now look at this one.
Identify the measured pKi of Clc1ccc2ccn(CCN3CCCN4CCCCC4C3)c2n1 (stereo not given) for 5-hydroxytryptamine receptor 7 (Homo sapiens, UniProt P34969).
6.80
